# system: T1, TNFR1 (Homo sapiens, UniProt P19438)
# T1 chain: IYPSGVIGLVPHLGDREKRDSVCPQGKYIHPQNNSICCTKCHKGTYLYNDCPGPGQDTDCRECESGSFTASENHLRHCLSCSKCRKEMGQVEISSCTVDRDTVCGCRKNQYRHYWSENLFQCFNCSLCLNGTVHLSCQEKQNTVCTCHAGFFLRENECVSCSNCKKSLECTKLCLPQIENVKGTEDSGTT
# experimentDescription: yeast display SC50
measuredParameter: apparent Kd (screen) (nM)
// note: answer is a bare numeric in nM

Which apparent Kd (screen) reading was recorded for the binder L75Q (designed binder) MTLQELLREEALRRAEAEAFRYALELLAEKFPEQKEYLLDLAEEIESQIRSLSGVDVEDVRKFLDKEWAWVKELQAEHPAELAEVEAARAARLAELRAEVEAKVAA ?
0.79

Which apparent Kd (screen) reading was recorded for the binder L74E (designed binder) MTLQELLREEALRRAEAEAFRYALELLAEKFPEQKEYLLDLAEEIESQIRSLSGVDVEDVRKFLDKEWAWVKEELAEHPAELAEVEAARAARLAELRAEVEAKVAA ?
2.48
